Test system: IL-1β production in PMA-differentiated THP-1 cells
Test: IL-1β production in PMA-differentiated THP-1 cells stimulated with gramicidin (hTHP-1 assay containing 2% fetal bovine serum)
Type: cell-based, human
Conditions: Homo sapiens, THP-1, Table B1; 2% fetal bovine serum; class symbols; read-out: hTHP-1 IC50 (Average IC50 of compounds in hTHP-1 assay)
Experimental: Procedure 1: IL-1β Production in PMA-Differentiated THP-1 Cells Stimulated with Gramicidin. THP-1 cells were purchased from the American Type Culture Collection and sub-cultured according to instructions from the supplier. […] THP-1 cells were purchased from the American Type Culture Collection and sub-cultured according to instructions from the supplier. […] Cell free supernatant (40 μL) was collected using a 96-channel PlateMaster (Gilson) and the production of IL-1β was evaluated by HTRF (cisbio). […]
Item-by-item account of IC50

In the examples that follow, each entry is paired with its recorded IC50.
# compound, IC50
records = [
    ("CCc1cc2c(c(C(C)C)c1CC(=O)N=S(N)(=O)c1cnc(C(C)(C)O)s1)COC2 (single isomer, unassigned) [Example 291]", "5000 to 30000 nM"),
    ("CC(C)c1cc(C#N)nc(C(C)C)c1CC(=O)NS(=N)(=O)c1sc(C(C)(C)O)nc1CO (centres unmarked)", "5000 to 30000 nM"),
    ("CC(C)c1cc2c(c(C(C)C)c1CC(=O)N=S(N)(=O)c1cnc(C(C)(O)CO)s1)COC2 (centres unmarked) [Example 252]", "1000 to 5000 nM"),
    ("CC(C)c1cc(COC2CCCC2)cc(C(C)C)c1CC(=O)N=S(N)(=O)c1cnc(C(C)(C)O)s1 (centres unmarked) [Example 141]", "40 to 200 nM"),
    ("CC(C)c1ccc(F)c(C(C)C)c1CC(=O)N=S(N)(=O)c1cc(C(C)(C)O)cs1 (centres unmarked)", "40 to 200 nM"),
]

Request: May I ask what IC50 has been recorded for CC(C)c1cc(C#CC2CCOCC2)cc(C(C)C)c1CC(=O)N=S(N)(=O)c1cc(C(C)(C)O)n(-c2ccccc2)n1 (single isomer, unassigned) [Example 277] ?
Response: 200 to 1000 nM

Request: Here is the next compound: COCc1cc(C(C)C)c(CC(=O)N=S(N)(=O)c2ncc(C(C)(C)O)s2)c(C(C)C)c1 (centres unmarked)
Response: 40 to 200 nM

Request: Here is the next compound: CC(C)c1cc(CCC2CCOCC2)cc(C(C)C)c1CC(=O)N=S(N)(=O)c1cc(C(C)(C)O)n(-c2ccccc2)n1 (single isomer, unassigned)
Response: 5000 to 30000 nM

Request: Here is the next compound: CC(C)(O)c1ncc(S(N)(=O)=NC(=O)Cc2c(C3CC3)cc(F)cc2C(F)(F)F)s1 (single isomer, unassigned) [Example 196]
Response: 5000 to 30000 nM

Request: Here is the next compound: CC(C)c1cc(C(F)F)nc(C(C)C)c1CC(=O)N=S(N)(=O)c1ccc(CN(C)C)cc1 (centres unmarked) [Example 258]
Response: 1000 to 5000 nM

Request: Here is the next compound: CC(C)c1cc(-c2ccc3c(c2)CCOC3)cc(C(C)C)c1CC(=O)N=S(N)(=O)c1sc(C(C)(C)O)nc1CO (centres unmarked)
Response: 200 to 1000 nM

Reference for the values: patent US20230059136A1
